Target: human TACE (Homo sapiens (Human))
Sequence (P78536 whole entry, looked up, change not shown): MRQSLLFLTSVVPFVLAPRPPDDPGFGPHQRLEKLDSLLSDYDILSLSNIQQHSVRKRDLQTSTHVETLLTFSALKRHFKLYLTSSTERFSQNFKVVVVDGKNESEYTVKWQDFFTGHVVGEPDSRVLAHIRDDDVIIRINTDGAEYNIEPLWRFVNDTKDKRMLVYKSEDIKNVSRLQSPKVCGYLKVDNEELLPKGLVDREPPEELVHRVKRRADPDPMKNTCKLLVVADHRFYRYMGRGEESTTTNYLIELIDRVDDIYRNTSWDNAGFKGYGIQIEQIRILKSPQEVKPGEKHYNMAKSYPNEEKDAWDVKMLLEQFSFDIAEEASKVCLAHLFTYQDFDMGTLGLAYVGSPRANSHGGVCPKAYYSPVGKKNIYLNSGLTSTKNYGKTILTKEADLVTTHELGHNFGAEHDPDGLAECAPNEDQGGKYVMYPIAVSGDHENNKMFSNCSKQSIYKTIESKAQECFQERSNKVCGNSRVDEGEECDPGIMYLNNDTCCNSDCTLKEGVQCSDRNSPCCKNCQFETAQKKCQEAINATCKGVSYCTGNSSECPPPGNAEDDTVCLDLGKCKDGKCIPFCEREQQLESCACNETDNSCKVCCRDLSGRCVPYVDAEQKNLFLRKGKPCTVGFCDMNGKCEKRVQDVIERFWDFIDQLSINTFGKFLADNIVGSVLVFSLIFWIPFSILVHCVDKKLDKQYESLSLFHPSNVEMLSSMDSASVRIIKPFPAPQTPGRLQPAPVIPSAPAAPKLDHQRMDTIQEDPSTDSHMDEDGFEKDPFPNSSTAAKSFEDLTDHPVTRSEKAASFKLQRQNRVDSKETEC
Settings: read-out: TACE potency IC50
pIC50: −log10 of the molar value.
Measured pIC50 of individual entries

C[C@H]1CN(C(=O)CCC2(c3ccccn3)NC(=O)NC2=O)CCN1c1cccc(F)c1 (stereo partly shown); < 5.40
CC(CC1(C2CC2)NC(=O)NC1=O)C(=O)N1CCN(c2cc(Cl)cc(Cl)c2)CC1 (stereo not shown) [compound 409]; 6.51
Cc1ccc(C2(CCC(=O)N3CCN(c4ccc(Cl)c(Cl)c4)[C@@H](C)C3)NC(=O)NC2=O)cn1 (stereo partly shown); < 5.40
Cc1cc(N2CCN(C(=O)C(C)CC3(C4CC4)NC(=O)NC3=O)C[C@@H]2C)ccc1F (stereo partly shown); < 5.40
CC(CC1(C)NC(=O)NC1=O)C(=O)N1C[C@@H](C)N(c2cc(Cl)cc(Cl)c2)[C@@H](C)C1 (stereo partly shown); < 4.71
C[C@H]1CN(C(=O)CCC2(c3ccn(C)n3)NC(=O)NC2=O)CCN1c1cc(F)cc(F)c1 (stereo partly shown); < 4.70
CC1CN(C(=O)CCC2(C3CC3)NC(=O)NC2=O)CCN1c1ccccc1 (stereo not shown); < 4.70
Cc1ccc(F)cc1N1CCN(C(=O)C(C)CC2(C)NC(=O)NC2=O)CC1 (stereo not shown); 6.60

Entry under test: `CNc1cc(N2CCN(C(=O)CC[C@@]3(C)NC(=O)NC3=O)C[C@@H]2C)ccc1Cl` . Its pIC50 was < 4.70

GET /value?item= C[C@H]1CN(C(=O)CCC2(c3ncccn3)NC(=O)NC2=O)CCN1c1cc(F)cc(F)c1 (stereo partly shown) &field=pIC50 returns < 4.70

Entry O=C1Cc2cc(C3(CCC(=O)N4CCN(c5cccc(Cl)c5)CC4)NC(=O)NC3=O)ccc2N1 (stereo not shown) — recorded pIC50 = 5.64

Measured pIC50, O=C1NC(=O)C(CCC(=O)N2CCN(c3cc(Cl)cc(Cl)c3)CC2)(c2cccnc2)N1 (stereo not shown) : 6.02

Record summary for CC(CC1(CN2CCOCC2)NC(=O)NC1=O)C(=O)N1CCN(c2cc(Cl)cc(Cl)c2)CC1 (stereo not shown) : reported pIC50 = 5.60

The measured pIC50 associated with Cc1ccc(F)cc1N1CCN(C(=O)CCC2(C3CC3)NC(=O)NC2=O)CC1 (stereo not shown) reads < 5.33

pIC50 reported for this compound Cc1ncccc1-c1cccc(N2CCN(C(=O)CCC3(C4CC4)NC(=O)NC3=O)C[C@@H]2C)c1 (stereo partly shown) : < 5.40

So for Cc1ccc(Cl)cc1N1CCN(C(=O)CCC2(C)NC(=O)NC2=O)CC1 (stereo not shown) , the logged pIC50 turned out to be 6.34

C[C@H]1CN(C(=O)CCC2(C3CC3)NC(=O)NC2=O)CCN1c1cccc(-c2ccnn2C)c1 (stereo partly shown) has a reported pIC50 of < 4.70

// sample CC(CC1(CCN)NC(=O)NC1=O)C(=O)N1CCN(c2ccc(F)c(F)c2)CC1 (stereo not shown) , its pIC50 was < 4.92

Looking up Cc1cc(CC(CC2(C)NC(=O)NC2=O)C(=O)N2CCN(c3cc(Cl)cc(Cl)c3)CC2)n(C)n1 (stereo not shown) , I see its pIC50 listed as 5.50

pIC50 recorded for this compound, C[C@H]1CN(C(=O)CCC2(C3CC3)NC(=O)NC2=O)CCN1c1ccc(Cl)cc1 (stereo partly shown) , is < 5.40

Field pIC50 (entry Cc1c(Cl)cc(Cl)cc1N1CCN(C(=O)C(C)CC2(C)NC(=O)NC2=O)C[C@@H]1C (stereo partly shown) ) reads 5.83

Form: compound = C[C@@H]1CN(C(=O)CCC2(C3CC3)NC(=O)NC2=O)CCN1c1ccccc1 (stereo partly shown) ; pIC50 = < 4.70

get_value(item= CC1(CCC(=O)N2CCN(c3ccc(Cl)cc3)CC2)NC(=O)NC1=O (stereo not shown) , readout=pIC50) returns < 4.76

// pIC50 lookup, compound = CS(=O)(=O)c1ccc(C2(CCC(=O)N3CCN(c4cccc(Cl)c4)CC3)NC(=O)NC2=O)cc1 (stereo not shown) , result: 6.06

So, O=C1NC(=O)C(CCC(=O)N2CCN(c3cccnc3)CC2)(c2ccccc2)N1 (stereo not shown) ? Its pIC50 was < 4.70

Note to self: pIC50 recorded for C[C@H]1CN(C(=O)CCC2(C3CC3)NC(=O)NC2=O)CCN1c1cnnc(Cl)c1 (stereo partly shown) was < 4.70

Value of measured pIC50 for the entry Cc1nc(C2(CCC(=O)N3CCN(c4cc(F)cc(F)c4)[C@@H](C)C3)NC(=O)NC2=O)co1 (stereo partly shown) : < 4.70

Recorded result, C[C@H]1CN(C(=O)CCC2(C3CC3)NC(=O)NC2=O)CCN1c1ccc2[nH]ncc2c1 (stereo partly shown) , pIC50: < 4.70

Please fill in: pIC50 reported for CC(CC1(CC2CCN(C(=O)OC(C)(C)C)CC2)NC(=O)NC1=O)C(=O)N1CCN(c2cc(Cl)cc(Cl)c2)CC1 (stereo not shown) = 6.09

Lab note: measured pIC50 of C[C@H]1CN(C(=O)CCC2(C3CC3)NC(=O)NC2=O)CCN1c1cccnc1 (stereo partly shown) was < 4.70

Record CC(CC1(C2CC2)NC(=O)NC1=O)C(=O)N1CCN(c2cncc(F)c2)[C@@H](C)C1 (stereo partly shown) , field pIC50: < 4.70
